The measured values listed here are drawn from patent US20210317201A1.

- assay target: T1, Human IL-23 no linker (human, UniProt P29460 23-328)
- T1 construct: also called recombinant IL-23 without linker
- T1 sequence 1: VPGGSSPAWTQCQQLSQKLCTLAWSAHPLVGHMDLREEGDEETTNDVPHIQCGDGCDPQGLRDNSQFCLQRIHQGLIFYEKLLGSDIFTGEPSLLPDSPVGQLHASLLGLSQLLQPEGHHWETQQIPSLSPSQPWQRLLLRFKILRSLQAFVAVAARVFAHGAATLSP
- T1 sequence 2: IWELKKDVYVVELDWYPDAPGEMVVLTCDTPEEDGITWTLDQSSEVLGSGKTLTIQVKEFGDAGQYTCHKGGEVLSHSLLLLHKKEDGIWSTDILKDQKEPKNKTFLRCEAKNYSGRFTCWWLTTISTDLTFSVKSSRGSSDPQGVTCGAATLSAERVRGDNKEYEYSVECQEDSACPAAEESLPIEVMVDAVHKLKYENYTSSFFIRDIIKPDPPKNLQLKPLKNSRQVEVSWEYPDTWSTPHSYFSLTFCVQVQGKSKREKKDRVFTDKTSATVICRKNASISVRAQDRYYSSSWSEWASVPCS
- test protocol: SPR, ProteOn XPR36, global 1:1 fit
- Procedure: B) Affinities were measured for humanized antibodies derived from mouse antibody 6B8.
pKd: −log10 of the molar value.
Measured pKd values are reported for all entries that follow.

binder	pKd
Antibody B (antibody, human IgG1, kappa, L234A L235A, V domains shown, Humanized 6B8, human IgG1-KO (L234A/L235A) / kappa; also called 6B8-IgG1KO-5 with IgK-66; 6B8CVH-05 / 6B8CVK-66) VH: QVQLVQSGAEVKKPGSSVKVSCKASGFTFTDQTIHWVRQAPGQGLEWMGYIYPRDDSPKYNENFKGKVTLTADKSTSTAYMELSSLRSEDTAVYYCAIPDRSGYAWFIYWGQGTLVTVSS VL: DIQMTQSPSSLSASVGDRVTITCKASRDVAIAVAWYQQKPGKVPKLLIYWASTRHTGVPSRFSGSGSRTDFTLTISSLQPEDVADYFCHQYSSYPFTFGSGTKLEIKR	> 12.00
Antibody A (antibody, human IgG1, kappa, L234A L235A, V domains shown, Humanized 6B8, human IgG1-KO (L234A/L235A) / kappa; also called 6B8-IgG1KO-2 with IgK-66; 6B8CVH-02 / 6B8CVK-66) VH: QVQLVQSGAEVKKPGSSVKVSCKASGYTFTDQTIHWMRQAPGQGLEWIGYIYPRDDSPKYNENFKGKVTITADKSTSTAYMELSSLRSEDTAVYYCAIPDRSGYAWFIYWGQGTLVTVSS VL: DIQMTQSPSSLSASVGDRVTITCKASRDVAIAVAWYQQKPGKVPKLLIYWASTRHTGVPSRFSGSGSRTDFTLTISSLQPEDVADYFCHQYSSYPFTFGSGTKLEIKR	> 12.00
